test: in vitro; conditions: mouse, plasma
Non-standard residues stand in square brackets, D forms with d. Residues, ends and D or L forms follow the SMILES beside them. Nle = CCCC[C@H](N)C(=O)O
VALUE KIND: remaining at 1 h, 1 µM (%)
Give the value, in units of %, as a plain number.

Recorded remaining at 1 h, 1 µM, per entry:
# COMPOUND, remaining at 1 h, 1 µM [%]
data = [
    ("CCCC[C@H](NC(=O)[C@@H](NC(=O)[C@@H](N)Cc1ccc(O)cc1)C(C)C)C(=O)N[C@H](C)C(=O)N[C@@H](Cc1c[nH]cn1)C(=O)N[C@@H](Cc1ccccc1)C(=O)N[C@@H](CCCNC(=N)N)C(=O)N[C@H](Cc1c[nH]c2ccccc12)C(=O)N[C@@H](CC(=O)O)C(=O)N[C@@H](CCCNC(=N)N)C(=O)N[C@@H](Cc1ccccc1)C(=O)NCC(=O)O [CTX-1103] (H-YV[Nle][dA]HFR[dW]DRFG-OH)", 0.02),
    ("CCCC[C@H](NC(=O)[C@@H](NC(=O)[C@H](N)Cc1ccc(O)cc1)C(C)C)C(=O)N[C@H](C)C(=O)N[C@@H](Cc1c[nH]cn1)C(=O)N[C@@H](Cc1ccccc1)C(=O)N[C@@H](CCCNC(=N)N)C(=O)N[C@H](Cc1c[nH]c2ccccc12)C(=O)N[C@@H](CC(=O)O)C(=O)N[C@@H](CCCNC(=N)N)C(=O)N[C@@H](Cc1ccccc1)C(=O)NCC(=O)O [CTX-1125] (H-[dY]V[Nle][dA]HFR[dW]DRFG-OH)", 103),
]

Okay, next one:
Value lookup for remaining at 1 h, 1 µM; key = CCCC[C@H](NC(=O)[C@@H](NC(C)=O)C(C)C)C(=O)N[C@H](C)C(=O)N[C@@H](Cc1c[nH]cn1)C(=O)N[C@@H](Cc1ccccc1)C(=O)N[C@@H](CCCNC(=N)N)C(=O)N[C@H](Cc1c[nH]c2ccccc12)C(=O)N[C@@H](CC(=O)O)C(=O)N[C@@H](CCCNC(=N)N)C(=O)N[C@@H](Cc1ccccc1)C(=O)NCC(=O)O [CTX-1121] (Ac-V[Nle][dA]HFR[dW]DRFG-OH)
81.7
